// reported CC50 at 24 h per item
# EXPERIMENT_SUMMARY: in vitro
# MEASUREMENT_CONDITIONS: rat, gh3-tre-luc cells, AC50 (uM) modified / 1000
Where a name gives a salt, the structure may show the parent alone.
METRIC: CC50 at 24 h

INSERT INTO results (compound, result) VALUES
  ('CCCCCCCC/C=C\CCCCCCCC(=O)OC [Methyl (9Z)-octadec-9-enoate]', '> 90 µM'),
  ('CCCCCCCCCCCl', '> 90 µM'),
  ('COc1cccc2c1[C@@H]1CN(CCCCn3c(=O)[nH]c4c(sc5ncc(-c6ccccc6)nc54)c3=O)C[C@@H]1CO2 [Fiduxosin hydrochloride]', '13.1 µM'),
  ('COc1ccc(/C=C/c2cc(OC)cc(=O)o2)cc1', '> 40 µM'),
  ('C=Cc1ccccn1', '> 90 µM'),
  ('CNC1CCCN(c2c(F)cc3c(=O)c(C(=O)O)cn(C4CC4)c3c2OC)C1 (stereo not shown)', '> 50 µM'),
  ('CCCC(C)C1(CC)C(=O)NC(=O)NC1=O (stereo not shown)', '> 50 µM'),
  ('O=C1CCCCCN1', '> 90 µM'),
  ('CC1(C)S[C@@H]2[C@H](NC(=O)[C@H](N)c3ccccc3)C(=O)N2[C@H]1C(=O)OCOC(=O)[C@@H]1N2C(=O)C[C@H]2S(=O)(=O)C1(C)C [Sultamicillin tosylate]', '> 50 µM'),
  ('CS(=O)(=O)c1ccc(C(=O)C2C(=O)CCCC2=O)c(Cl)c1COCC(F)(F)F', '> 90 µM'),
  ('CCOc1ccc2nc(S(N)(=O)=O)sc2c1 [Ethoxzolamide]', '> 50 µM'),
  ('CC(=O)NC[C@H]1CN(c2ccc(N3CCOCC3)c(F)c2)C(=O)O1', '> 50 µM'),
  ('O=C1NC(=O)c2ccccc21', '> 90 µM'),
  ('C[C@@H]1[C@H](O)[C@@H](C)/C=C/C=C/C=C/C=C/C=C/C=C/C=C/[C@H](O[C@@H]2O[C@H](C)[C@@H](O)[C@H](N)[C@@H]2O)C[C@@H]2O[C@](O)(C[C@@H](O)C[C@@H](O)[C@H](O)CC[C@@H](O)C[C@@H](O)CC(=O)O[C@H]1C)C[C@H](O)[C@H]2C(=O)O', '32.9 µM'),
  ('CC(C)COC(=O)c1ccc(O)cc1', '> 90 µM'),
  ('CO/N=C1\C[C@]2(C[C@@H]3C[C@@H](C/C=C(\C)C[C@@H](C)/C=C/C=C4\CO[C@@H]5[C@H](O)C(C)=C[C@@H](C(=O)O3)[C@]45O)O2)O[C@H](/C(C)=C/C(C)C)[C@H]1C', '5.14 µM');

* * *

# EXPERIMENT_SUMMARY: in vitro
# Parameters: species or system GH3-TRE-Luc (rat pituitary); CellTiter-Fluor viability run in parallel with antagonist mode (1 nM T3), loss of viability
# MEASUREMENT_CONDITIONS: rat, gh3-tre-luc cells, AC50 (uM) modified / 1000, Tox21_110001=Tox21_301741, viability, 1 nM T3 present
METRIC: CC50 at 24 h

INSERT INTO results (mol, metric, result) VALUES
  ('CCOP(=S)(OCC)SCSc1cc(Cl)ccc1Cl', 'CC50 at 24 h', '> 90 µM');

* * *

# EXPERIMENT_SUMMARY: in vitro
# MEASUREMENT_CONDITIONS: rat, gh3-tre-luc cells, AC50 (uM) modified / 1000, Tox21_110001=Tox21_112826; viability, 1 nM T3 present, 24 h
Where a name gives a salt, the structure may show the parent alone.
METRIC: CC50 at 24 h

INSERT INTO results (compound, metric, result) VALUES
  ('C[C@H]1[C@@H]2Cc3ccc(O)cc3[C@@]1(C)CCN2C [(+)-Metazocine fumarate (2:1)]', 'CC50 at 24 h', '> 200 µM');

* * *

Readings of CC50 at 24 h for the listed compounds
# EXPERIMENT_SUMMARY: in vitro
# MEASUREMENT_CONDITIONS: rat, gh3-tre-luc cells, AC50 (uM) modified / 1000
Where a name gives a salt, the structure may show the parent alone.
METRIC: CC50 at 24 h

INSERT INTO assay_data (compound, metric, result) VALUES
  ('CCn1nc(Cc2ccccc2)cc1C1CCN(C[C@H]2C[C@H](N(C)[C@@H](C(=O)O)C(C)C)C[C@@H]2c2cccc(F)c2)CC1', 'CC50 at 24 h', '66.4 µM'),
  ('Nc1nc(N)nc(NC2CC2)n1', 'CC50 at 24 h', '> 90 µM'),
  ('CCOC(=O)Cn1c(=O)sc2cccc(Cl)c21', 'CC50 at 24 h', '> 90 µM'),
  ('CC1CN1 (centres unmarked)', 'CC50 at 24 h', '> 90 µM'),
  ('CN1CCC(=C2c3ccccc3CCc3sccc32)CC1', 'CC50 at 24 h', '10.6 µM'),
  ('Sc1nc2ccccc2s1', 'CC50 at 24 h', '> 50 µM'),
  ('OC[C@H]1O[C@H](O[C@@]2(CO)O[C@@H](O)[C@H](O)[C@@H]2O)[C@H](O)[C@@H](O)[C@@H]1O', 'CC50 at 24 h', '> 50 µM'),
  ('CCCCCCCCCCCCCO', 'CC50 at 24 h', '> 90 µM'),
  ('CC(C)=CC1C(C(=O)OCc2cccc(Oc3ccccc3)c2)C1(C)C (centres unmarked)', 'CC50 at 24 h', '> 90 µM'),
  ('CCCCOC(=O)C(C)O (centres unmarked) [Butyl lactate]', 'CC50 at 24 h', '> 90 µM'),
  ('Cc1cc(C(C)(C)C)c(O)c(C)c1Cn1c(=O)n(Cc2c(C)cc(C(C)(C)C)c(O)c2C)c(=O)n(Cc2c(C)cc(C(C)(C)C)c(O)c2C)c1=O', 'CC50 at 24 h', '> 90 µM'),
  ('C=C(C)CC(C)(C)C', 'CC50 at 24 h', '> 90 µM'),
  ('CO/N=C(/C1=NOCCO1)c1ccccc1Oc1ncnc(Oc2ccccc2Cl)c1F', 'CC50 at 24 h', '32.7 µM'),
  ('CCc1cccc(C)c1N(C(=O)CCl)C(C)COC (centres unmarked)', 'CC50 at 24 h', '> 90 µM'),
  ('SCCSCCS', 'CC50 at 24 h', '> 90 µM'),
  ('CCC(C)c1cc([N+](=O)[O-])cc([N+](=O)[O-])c1OC(=O)C=C(C)C (centres unmarked)', 'CC50 at 24 h', '36.3 µM'),
  ('CC1=CCC(=C(C)C)CC1', 'CC50 at 24 h', '> 90 µM'),
  ('CC(=O)N(CC(C)C(=O)O)c1c(I)cc(I)c(N)c1I (centres unmarked)', 'CC50 at 24 h', '> 20 µM'),
  ('CCCCOC(=O)CCCCCCCC(=O)OCCCC [Dibutyl nonanedioate]', 'CC50 at 24 h', '> 90 µM'),
  ('NC(=O)CC[C@@H]1NC(=O)[C@H](Cc2ccccc2)NC(=O)[C@H](Cc2ccc(O)cc2)NC(=O)[C@@H](N)CSSC[C@@H](C(=O)N2CCC[C@H]2C(=O)N[C@@H](CCCN=C(N)N)C(=O)NCC(N)=O)NC(=O)[C@H](CC(N)=O)NC1=O [Argipressin acetate]', 'CC50 at 24 h', '> 50 µM'),
  ('O=C(O)CNC(=O)c1ccc(CO)o1 [5-(Hydroxymethyl-2-furoyl)glycine]', 'CC50 at 24 h', '> 90 µM'),
  ('CC(C)(O)C(=O)c1ccc(OCCO)cc1', 'CC50 at 24 h', '> 90 µM'),
  ('CC(C)CCCCCCCOC(=O)CCCCC(=O)OCCCCCCCC(C)C [Diisodecyl hexanedioate]', 'CC50 at 24 h', '> 100 µM'),
  ('CC(C)OCC1CO1 (centres unmarked)', 'CC50 at 24 h', '> 90 µM'),
  ('O=S(=O)(c1ccc(Cl)cc1)c1ccc(Cl)cc1', 'CC50 at 24 h', '> 90 µM'),
  ('O=C(O)c1cc(C(=O)O)cc(S(=O)(=O)O)c1 [Sodium 5-sulfoisophthalate]', 'CC50 at 24 h', '> 90 µM'),
  ('CC1(C)O[C@@H]2[C@@H](CO[C@@]3(COS(N)(=O)=O)OC(C)(C)O[C@@H]23)O1 [Topiramate]', 'CC50 at 24 h', '> 90 µM'),
  ('N#CNC(=N)N', 'CC50 at 24 h', '> 90 µM'),
  ('CC(C)CCCC(C)CCCC(C)CCCCC(C)CCCC(C)CCCC(C)C (centres unmarked)', 'CC50 at 24 h', '> 50 µM'),
  ('C=CCCCCCC', 'CC50 at 24 h', '> 90 µM'),
  ('Clc1ccc(C(OCCN2CCCCC2)c2ccccc2)cc1 (centres unmarked) [Cloperastine hydrochloride]', 'CC50 at 24 h', '9.53 µM'),
  ('CC/C=C\CC/C=C/C(OCC)OCC', 'CC50 at 24 h', '> 90 µM'),
  ('CC(=O)OCC=C(C)C [3,3-Dimethylallyl acetate]', 'CC50 at 24 h', '> 60 µM'),
  ('CC[N+](C)(C)Cc1ccccc1Br [Bretylium tosylate]', 'CC50 at 24 h', '> 20 µM'),
  ('CC[C@@H](N)CO', 'CC50 at 24 h', '> 100 µM'),
  ('CC(=O)CC(=O)Nc1ccccc1 [Acetoacetanilide]', 'CC50 at 24 h', '> 90 µM'),
  ('CCCCC1CCC(O)CC1 (centres unmarked)', 'CC50 at 24 h', '> 90 µM'),
  ('CC(C)(c1cc(Br)c(O)c(Br)c1)c1cc(Br)c(O)c(Br)c1', 'CC50 at 24 h', '39.3 µM');
